# experimental-system: Voltage-gated inwardly rectifying potassium channel KCNH2 (Homo sapiens)
# Sequence (Q12809 whole entry): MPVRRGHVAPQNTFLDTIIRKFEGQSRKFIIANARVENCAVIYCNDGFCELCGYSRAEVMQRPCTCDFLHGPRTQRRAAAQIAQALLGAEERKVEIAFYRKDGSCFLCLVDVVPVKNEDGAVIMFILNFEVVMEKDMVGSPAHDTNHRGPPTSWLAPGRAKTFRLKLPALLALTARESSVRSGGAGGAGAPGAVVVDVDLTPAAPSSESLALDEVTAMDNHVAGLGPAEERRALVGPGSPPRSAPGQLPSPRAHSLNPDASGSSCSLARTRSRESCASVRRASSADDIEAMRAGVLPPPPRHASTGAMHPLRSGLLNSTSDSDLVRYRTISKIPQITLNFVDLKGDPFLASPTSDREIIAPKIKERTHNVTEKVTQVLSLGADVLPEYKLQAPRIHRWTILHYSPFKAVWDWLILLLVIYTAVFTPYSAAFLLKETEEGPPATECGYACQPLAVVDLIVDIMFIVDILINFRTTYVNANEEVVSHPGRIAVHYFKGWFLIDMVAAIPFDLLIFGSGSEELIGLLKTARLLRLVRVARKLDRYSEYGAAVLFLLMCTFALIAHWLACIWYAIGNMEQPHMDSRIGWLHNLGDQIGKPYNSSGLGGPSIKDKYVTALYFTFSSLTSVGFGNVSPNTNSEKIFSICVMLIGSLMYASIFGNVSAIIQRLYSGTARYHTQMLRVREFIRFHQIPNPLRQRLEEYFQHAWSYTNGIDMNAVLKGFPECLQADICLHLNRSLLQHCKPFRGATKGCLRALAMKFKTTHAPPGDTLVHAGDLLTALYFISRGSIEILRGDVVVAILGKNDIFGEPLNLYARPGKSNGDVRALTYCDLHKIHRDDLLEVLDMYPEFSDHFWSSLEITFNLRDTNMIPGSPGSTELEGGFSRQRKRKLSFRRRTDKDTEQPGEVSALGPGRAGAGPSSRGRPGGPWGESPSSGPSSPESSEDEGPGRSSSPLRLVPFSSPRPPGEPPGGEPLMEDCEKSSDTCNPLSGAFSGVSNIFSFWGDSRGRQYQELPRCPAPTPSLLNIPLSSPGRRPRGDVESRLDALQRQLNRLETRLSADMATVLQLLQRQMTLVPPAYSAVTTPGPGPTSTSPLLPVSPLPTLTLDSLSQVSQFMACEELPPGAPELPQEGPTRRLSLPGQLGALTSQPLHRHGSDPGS
# test-method-notes: Inhibition of recombinant human ERG expressed in CHO cells at -80 mV holding potential by automated patch clamp method
pIC50: −log10 of the molar value.

# smiles-data, pIC50
measured = [
    ("COC(=O)c1cc(OC[C@H](COS(=O)(=O)[O-])OS(=O)(=O)[O-])ccc1OC[C@@H](COS(=O)(=O)[O-])OS(=O)(=O)[O-].[Na+].[Na+].[Na+].[Na+]", "< 4.60"),
]

###

# test-method-notes: Kinetic solubility of compound in PBS at pH 7.4 incubated for 2 hrs by turbidometric analysis
# Assay type: physicochemical
# experimental-conditions: read-out: Kinetic_solubility

# smiles-data, solubility kinetic at 2 h
measured = [
    ("COC(=O)c1cc(OC[C@@H](COS(=O)(=O)[O-])OS(=O)(=O)[O-])ccc1OC[C@H](COS(=O)(=O)[O-])OS(=O)(=O)[O-].[Na+].[Na+].[Na+].[Na+]", "> 100 µM"),
    ("COC(=O)c1cc(OC[C@H](COS(=O)(=O)[O-])OS(=O)(=O)[O-])ccc1OC[C@@H](COS(=O)(=O)[O-])OS(=O)(=O)[O-].[Na+].[Na+].[Na+].[Na+]", "> 100 µM"),
]
